Data origin: the domain aggregation screens of Martell et al. (2025)

Method Description: soluble fraction after stress (log2 fold change); higher = more stays soluble; pooled small domains, quantitative proteomics
Details: stress: pH 4
Kindly supply the reported soluble fraction (log2) values for the records listed here.
Give bare numbers.

- HMDIFLPDVKGYDLIPSFRRHLPDIDVIAMTGYNTRALESAVRQQDVLFYMIKPFEASQLKEILEHLVK: -0.279
- HMITDNEFLRIVSFLKQRYGIDMSQKKVIMNGRLENYLKSGGWSSFDEYMNDVEKDTSGDLEKTLVNFLTT: -0.853
- HMLELTVSDKMARLMAWRNRRRVNLSDQELHRIAAAPKQSPESILKMLPGFLQDSVPEIWAELTGGRP: -0.0678

Please give soluble fraction (log2), item by item, for the list that follows.
1. HMTTIHVDPEKISKIIGPGGKTIKKIVEETGAKIDIEEDGRVYIAAVNSEEAAKAIDMINGI
2. HMNEKAALIFNEWSDFVSKDDEANAQIKFDELITLYKKTGYTKIALLEVATKQASNGDIEGALAKYSLLID
3. HMNSNKFANAAAVAVAEKPADSYNPLFIYGPSGVGKTHLLYAIANEIHKHHPDYNIVYIKGDQFTNELIN
4. HMKKHALFTLFKHHNANGTTVWYARFWDDATQRYAIARSTGVLAQGKRERHDEAITVAREMASSIQFS
5. HMASMHDGVAARLRAMVFERELAPGEFIDERRLAQQWQISRTPLREALKVLAAEGLVELVPRRGARVV
6. HMQGQADFTQGIANFTQYPVGSRITVFTLEGRRVAVVEIGKDGTAQLDMRNKPAGVYIVNTGKQSFKWLK
7. HMIITLNIENLKRARENAGLTQTQAAQKIGVSDGTYKNYEQGKREPNGDKIVTIANAFGVTTDYLLGR

Ans.
-0.274
-0.919
0.201
0.264
-0.275
-0.0678
0.22

Give soluble fraction (log2) for each listed item.
1. HMAGPVLTPEEAEVLRILADHGEMTVDNISAEGKMSAAVVLRGLGVLSAYGLVAPGGPGRWRSE
2. HMSNENIDQDELQAIIQKVLASNQDAVAKYKAGKTAVIGFLIGQVMRQLNKKIDVALAKKTLLVFLEK
3. HMKQISNTDELESMAKNIIQENPDQVSKFKNGNEKLFGWFVGQMMKSTGGTANPKVVNEILKNLLN

Ans.
[0.00808, 0.0782, 0.162]

Quick batch: soluble fraction (log2) for everything below.
1. HMTKGDRIKARREELGLTQTDLAEAISSTKQNIYKYENNIISNIPSDKVEAIAEVLKISPAYLMGWGDE
2. HMKIPYGELIKLLNAAAPKLQDAQGWMDMEAAGQFIGSRWSYLDYGFKDWPDSFKTVHGLEIQGQRMRLA

Ans.
1: -0.594; 2: -0.306

----------
Method Description: soluble fraction after stress (log2 fold change); higher = more stays soluble; pooled small domains, quantitative proteomics
Details: stress: pH 4
Please provide measured soluble fraction (log2) for the entries that follow.

Illustrative cases are given below, each with its answer.
• HMHWDIAQADAKQEVMDSSDDKEAIERIQANMFKDPKDHDQEYANKILNDMIDEIKEKGLEAMQHKFAQE = ≥ 0.43
• HMLTGDVDRYKDFFIALEKTSPVPIGFEKIIGGAHGYYHLEDKRIAIDEGMSELQTLKTAIHEIAHAKLHD = -0.123
• HMRRGKLGMASRLEQIPGIGPKKRKALLKAFGNSIDAIKSAPVEDLMKVKGINLVLAESIKEL = 0.374
• HMESGFEAVREVARHGSFANAAKALGVSGPAVSRQVKSLEERLGLVFFHRTTRMVTLTEAGQQLVDTLD = -0.211
• HMNKETYIDALERKLWDRLDPDQLRDIISYYKDYFAMEAAKGISEEETIRKLGDPALLAKSILAAE = -0.145
• HMPKAMAIMSEIAGTVHIDDTKKSRHVEVTGVDDNGAPVTKSYLIPFGHRLKVMEGDVLVKGALLT = -0.0288

Give me soluble fraction (log2) for each of these sequences, listed below.
1. HMAVGDMISKLRTAANMSQEQFAELFGVTRQSVQKWENSFSVPELEKLIKISKYFDVSLDALVLRSDARVT
2. HMDTNAIIGLRIKNLRTEKKYTLKYLSENTGLSIGFLSQLERGMTSIAIDSLDKISKVLDVELSSFFT

Ans.
1: -1.32; 2: -0.14
